Taken from ChEMBL document CHEMBL1201862.

Give GI50 for every item shown.
# Tested on: SNB-75
# EXPERIMENTAL DETAILS: NCI tumour cell line growth inhibition, 48 h
Calls of active or inactive are those of the source. No stated cut-off is given here; in the data, active = GI50 up to about 1.1 µM and inactive = higher.

Challenge: Param item = `Cc1c2ccc3ccccc3c2c[n+]2ccccc12` ; retrieve measured GI50.
Response given: 6.41 µM (inactive)

Challenge: Also, `CC(=O)Oc1ccc(C)c2c1[C@H]1CC[C@]3(C)[C@@H](OC(C)=O)CC[C@H]3[C@@H]1CC2` please.
Response given: 24.9 µM (inactive)

Challenge: Moving on to the next molecule: CC(=O)OCC1OC(n2c(C)c(C)c(C)c(C#N)c2=S)C(OC(C)=O)C(OC(C)=O)C1OC(C)=O (centres undefined)
Response given: 80 µM (inactive)

Challenge: Request: COc1ccc(/C(=N\NC(=O)NN)C(c2ccc(OC)cc2)C2(O)C(=O)Nc3c(Cl)cc(Cl)cc32)cc1 (centres undefined)
Response given: > 100 µM (inactive)

Challenge: Proceed to `Cc1ccc(S(=O)(=O)O)cc1.c1cc2c(c(NC3=NCCN3)c1)CCCC2`
Response given: 89.3 µM (inactive)

Challenge: One more molecule: O=C1CC(c2cccc(Br)c2)n2cccc21 (centres undefined)
Response given: 35.3 µM (inactive)

Challenge: Same read-out for CCOC1=C2C(=O)OC(=O)C2C2CCCCC2=C1 (centres undefined) ?
Response given: > 100 µM (inactive)

Challenge: Same read-out for `C[n+]1c2ccccc2c(C(=O)Nc2ccc(S(=O)(=O)N=C(N)N)cc2)c2ccccc21` ?
Response given: > 100 µM (inactive)

Challenge: Queued: `CC(C)=CCC[C@@H](C)C1=C(O)C(=O)C(C)=C(Nc2ccccc2F)C1=O`
Response given: 22.1 µM (inactive)

Challenge: Try this molecule too: `CC1(C)CCC(C)(C)c2cc(NC(=O)c3ccc(C(=O)O)cc3)ccc21`
Response given: > 100 µM (inactive)

Challenge: Lookup Cc1cccc2c1Oc1cc(Cl)ccc1C2NC(=O)CCN1CCOCC1 (centres undefined)
Response given: 21.8 µM (inactive)

Challenge: And for `C/C(=C1/N=C(c2cc([N+](=O)[O-])ccc2Cl)N(C2=CC=C(Cl)CC2)C1=O)c1cc2ccccc2oc1=O` ?
Response given: 32.4 µM (inactive)

Challenge: Same question for COC(=O)C1Cc2c([nH]c3ccccc23)-c2[nH]c3ccccc3c2CC(NC(C)=O)C(=O)NCC(=O)NCC(=O)N1 (centres undefined) please.
Response given: > 100 µM (inactive)

Challenge: Entry CN(C)CCN1CCc2c([nH]c3ccccc23)C1c1cccnc1 (centres undefined) please
Response given: 61.1 µM (inactive)

Challenge: # iterate: `O=[N+]([O-])c1ncc(N(CCO)CCO)s1`
Response given: 30.8 µM (inactive)

Challenge: Entry `Cc1ccc(/C=C2\Cc3cc(C)c(C)cc3C2=O)c(C(=O)O)c1` please
Response given: 30.3 µM (inactive)

Challenge: Next: `CCOc1ccc(OCC(=O)O)c2c1CCCC2=O`
Response given: > 100 µM (inactive)

Challenge: For `C=CCc1cccc2cc(C(=O)Nc3ccccn3)c(=N)oc12` then?
Response given: > 100 µM (inactive)

Challenge: Check C[N+](C)(C)CC(=O)N/N=C(/CC1OC(=O)c2ccccc21)c1ccccc1O (centres undefined) too.
Response given: 39.1 µM (inactive)

Challenge: Subsequent entry: `O=C1Nc2ccc([N+](=O)[O-])cc2/C1=N/NC(=S)Nc1ccc([N+](=O)[O-])cc1`
Response given: 21.8 µM (inactive)

Challenge: Do the same for `CCCNC(=O)c1cc2ccccc2cc1C(=O)OC` please
Response given: 19.3 µM (inactive)

Challenge: Next up: `O=C1OCC/C1=C/c1ccc(/N=N/c2c(O)ccc3ccccc23)cc1`
Response given: 24.8 µM (inactive)

Challenge: Same question, `COc1c(C)c(C/C=C(\C)CCCCO[Si](c2ccccc2)(c2ccccc2)C(C)(C)C)c(OC)c(OC)c1OC` this time
Response given: > 46.3 µM (inactive)

Challenge: // query: `C/C(=N\Nc1ncnc2ccccc12)c1ccccn1`
Response given: 1.81 µM (inactive)
